- Experiment description: Measurement of brain exposure
- Assay type: in vivo
- Test context: rat, brain homogenate, oral; 10 mg/kg p.o.; brains collected at 2 hours post-dosing; male obese Zucker fa/fa rats; read-out: brain homogenate exposure level
Parameter: concentration at 2 h. Scope: all listed entries.

1) CCCCc1c(C(=O)NN2CCCCC2)nc(-c2ccccc2Cl)n1-c1ccc(Cl)cc1 : ~200 nM

Q. Give the value of concentration at 2 h reported for the following: CCc1c(C(=O)N[C@H]2CCCC[C@@H]2O)nc(-c2ccccc2Cl)n1-c1ccc(Cl)cc1
A. ~200 nM
